This collection of values is drawn from patent US20250197387A1.

- Experimental system: BCL-XL (Homo sapiens, UniProt Q07817)
- Construct: endogenous in cells; host or cells: MOLT-4
- Sequence (Q07817 whole entry): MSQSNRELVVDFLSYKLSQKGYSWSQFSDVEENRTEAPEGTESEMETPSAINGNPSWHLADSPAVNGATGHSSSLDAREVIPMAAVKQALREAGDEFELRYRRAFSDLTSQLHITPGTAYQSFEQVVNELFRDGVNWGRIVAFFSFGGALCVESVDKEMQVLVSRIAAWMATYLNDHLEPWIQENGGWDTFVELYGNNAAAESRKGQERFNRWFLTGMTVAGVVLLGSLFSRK
- Test description: BCL-XL degradation assay, western blot in MOLT-4 cells, 16 h
- Format: cell-based
- Run parameters: western blot, MOLT-4 cells, 16 h; read-out: Bcl-xL WB in MOLT-4 degradation 16 h: Average Dmax %
Metric name: Dmax

## Task For Cc1ncsc1-c1ccc([C@H](C)NC(=O)[C@@H]2C[C@@H](O)CN2C(=O)[C@@H](NC(=O)CCc2cccc(F)c2OCCCc2sc(N3CCc4cccc(C(=O)Nc5nc6ccccc6s5)c4C3)nc2C(=O)O)C(C)(C)C)cc1 , write its Dmax.
## Result < 50%

## Task For Cc1ncsc1-c1ccc(CNC(=O)[C@@H]2C[C@@H](O)CN2C(=O)[C@@H](NC(=O)C2(F)CC2)C(C)(C)C)c(OCC2CCN(CC[C@H](CSc3ccccc3)Nc3ccc(S(=O)(=O)NC(=O)c4ccc(N5CCN(CC6=C(c7ccc(Cl)cc7)CCC(C)(C)C6)CC5)cc4)cc3S(=O)(=O)C(F)(F)F)CC2)c1 , write its Dmax.
## Result > 75%
